Test system: HepG2 cells
appliedConditions: human, 24 h
valueType: MEC Apoptosis

| compound | value |
| --- | --- |
| Cc1c(C)c2c(c(C)c1O)CCC(C)(COc1ccc(CC3SC(=O)NC3=O)cc1)O2 (stereo not shown) | 100 µM |
| CC(=O)Nc1ccc(O)cc1 | 4 µM |
| O=C(O)Cc1ccccc1Nc1c(Cl)cccc1Cl | 125 µM |
| CC(C)C(=O)Nc1ccc([N+](=O)[O-])c(C(F)(F)F)c1 [Flutamide] | 500 µM |
| NNC(=O)c1ccncc1 | 30 µM |
| O=C(O)COc1ccc(C(=O)c2cccs2)c(Cl)c1Cl | 1200 µM |
| C1CCC(C(CC2CCCCN2)C2CCCCC2)CC1 (stereo not shown) | 15 µM |

###

Tested on: HepG2 cells transduced with AdCYP1A2
assayText: HCS hepatotoxicity assay (MEC, TR), AdCYP1A2-HepG2
Format: cell-based, human
appliedConditions: AdCYP 1A2 1x; 24 h; unit inferred, tested range in µM

| compound | MEC Apoptosis / µM |
| --- | --- |
| CC(C)C(=O)Nc1ccc([N+](=O)[O-])c(C(F)(F)F)c1 [Flutamide] | 250 |

###

System: HepG2 cells transduced with AdCYP2D6
assayText: HCS hepatotoxicity assay (MEC, TR), AdCYP2D6-HepG2
Assay type: cell-based, human
appliedConditions: AdCYP 2D6 4x; 24 h; unit inferred, tested range in µM
Experimental: For subculturing purposes, cells were detached by treatment with 0.25% trypsin/0.02% EDTA at 37 °C. For the adenovirus infection studies, cells were seeded in 96-well plates (5000 cells/well) and adenovirus-containing medium was added 48 h later. […] The drugs included in the study were chosen based on previous information about their hepatotoxicity. […] Each experimental condition was repeated independently three times (with three wells measured each time). […]

| molecule | measuredTarget | MEC Mitochondrial superoxide, µM |
| --- | --- | --- |
| C1CCC(C(CC2CCCCN2)C2CCCCC2)CC1 (stereo not shown) [Perhexiline] | HepG2 cells transduced with AdCYP2D6 | 22.5 |

###

System: HepG2 cells transduced with AdCYP2C9
assayText: HCS hepatotoxicity assay (MEC, TR), AdCYP2C9-HepG2
Assay type: cell-based, human
appliedConditions: AdCYP 2C9 10x; 24 h; unit inferred, tested range in µM
valueType: MEC Apoptosis (µM)

| compoundStructure | measuredTarget | unitOfMeasurement | value |
| --- | --- | --- | --- |
| O=C(O)COc1ccc(C(=O)c2cccs2)c(Cl)c1Cl | HepG2 cells transduced with AdCYP2C9 | µM | 200 |

###

System: HepG2 cells
appliedConditions: human, 24 h
The label depends only on TR: fulfilled if it is at least 8, not fulfilled if it is smaller.

| molecule | groupLabel |
| --- | --- |
| O=C(O)Cc1ccccc1Nc1c(Cl)cccc1Cl | fulfilled |
| Cc1c(C)c2c(c(C)c1O)CCC(C)(COc1ccc(CC3SC(=O)NC3=O)cc1)O2 (stereo not shown) | not fulfilled |
| C1CCC(C(CC2CCCCN2)C2CCCCC2)CC1 (stereo not shown) | fulfilled |
| CC(C)C(=O)Nc1ccc([N+](=O)[O-])c(C(F)(F)F)c1 [Flutamide] | not fulfilled |
| O=C(O)COc1ccc(C(=O)c2cccs2)c(Cl)c1Cl | fulfilled |
| CC(=O)Nc1ccc(O)cc1 | not fulfilled |
| NNC(=O)c1ccncc1 | not fulfilled |

###

Test system: HepG2 cells transduced with AdCYP3A4
assayText: Cell viability (PI), IC50, AdCYP3A4-HepG2
Type: cell-based
appliedConditions: Homo sapiens, ADV CYP3A4 x1, 24 h, unit inferred, tested range in µM, read-out: IC50 (cell viability), ADV dose x1

| molecule | IC50 |
| --- | --- |
| CC(C)C(=O)Nc1ccc([N+](=O)[O-])c(C(F)(F)F)c1 [Flutamide] | 219 µM |
| O=C(O)Cc1ccccc1Nc1c(Cl)cccc1Cl [Diclofenac] | 126 µM |
| Cc1c(C)c2c(c(C)c1O)CCC(C)(COc1ccc(CC3SC(=O)NC3=O)cc1)O2 (stereo not drawn) [Troglitazone] | 86 µM |

###

Tested on: HepG2 cells transduced with AdCYP2D6
assayText: HCS hepatotoxicity assay (MEC, TR), AdCYP2D6-HepG2
Assay type: cell-based, human
appliedConditions: AdCYP 2D6 4x; 24 h; unit inferred, tested range in µM
valueType: MEC ROS

| compound | measuredTarget | value |
| --- | --- | --- |
| C1CCC(C(CC2CCCCN2)C2CCCCC2)CC1 (stereo not shown) | HepG2 cells transduced with AdCYP2D6 | > 27.5 µM |

###

Test system: HepG2 cells transduced with AdCYP1A2
assayText: HCS hepatotoxicity assay (MEC, TR), AdCYP1A2-HepG2
Assay type: cell-based, human
appliedConditions: AdCYP 1A2 1x; 24 h; unit inferred, tested range in µM
Description: For subculturing purposes, cells were detached by treatment with 0.25% trypsin/0.02% EDTA at 37 °C. For the adenovirus infection studies, cells were seeded in 96-well plates (5000 cells/well) and adenovirus-containing medium was added 48 h later. […] The drugs included in the study were chosen based on previous information about their hepatotoxicity. […] Each experimental condition was repeated independently three times (with three wells measured each time). […]

| compound | MEC MMP, µM |
| --- | --- |
| CC(C)C(=O)Nc1ccc([N+](=O)[O-])c(C(F)(F)F)c1 [Flutamide] | 500 |

###

Tested on: HepG2 cells transduced with AdCYP2C9
assayText: HCS hepatotoxicity assay (MEC, TR), AdCYP2C9-HepG2
Type: cell-based, human
appliedConditions: AdCYP 2C9 1x; 24 h; unit inferred, tested range in µM

| compound | MEC Calcium |
| --- | --- |
| O=C(O)COc1ccc(C(=O)c2cccs2)c(Cl)c1Cl [Tienilic acid] | 600 µM |

###

Tested on: HepG2 cells transduced with AdCYP1A2
assayText: HCS hepatotoxicity assay (MEC, TR), AdCYP1A2-HepG2
Format: cell-based, human
appliedConditions: AdCYP 1A2 4x; 24 h; unit inferred, tested range in µM
valueType: MEC Calcium (µM)

| compound | unitOfMeasurement | value |
| --- | --- | --- |
| CC(C)C(=O)Nc1ccc([N+](=O)[O-])c(C(F)(F)F)c1 [Flutamide] | µM | 500 |

###

Tested on: HepG2 cells co-transduced with AdCYP2E1 and AdCYP1A2
assayText: HCS hepatotoxicity assay (MEC, TR), AdCYP2E1 + AdCYP1A2 HepG2
Type: cell-based, human
appliedConditions: CYP2E1-4X + CYP1A2-4X; 24 h; unit inferred, tested range in mM
valueType: MEC ROS

| compoundStructure | value |
| --- | --- |
| CC(=O)Nc1ccc(O)cc1 | 0.5 mM |

###

System: HepG2 cells transduced with AdCYP2D6
assayText: HCS hepatotoxicity assay (MEC, TR), AdCYP2D6-HepG2
Format: cell-based, human
appliedConditions: AdCYP 2D6 10x; 24 h; unit inferred, tested range in µM

| compound | MEC ROS |
| --- | --- |
| C1CCC(C(CC2CCCCN2)C2CCCCC2)CC1 (stereo not shown) [Perhexiline] | > 27.5 µM |

###

Test system: HepG2 cells
appliedConditions: human, 24 h
MEC Mitochondrial superoxide values for the compounds below.

| compound | measuredTarget | MEC Mitochondrial superoxide |
| --- | --- | --- |
| NNC(=O)c1ccncc1 [Isoniazid] | HepG2 cells | 30 |
| O=C(O)Cc1ccccc1Nc1c(Cl)cccc1Cl [Diclofenac] | HepG2 cells | 125 |
| Cc1c(C)c2c(c(C)c1O)CCC(C)(COc1ccc(CC3SC(=O)NC3=O)cc1)O2 (stereo not shown) [Troglitazone] | HepG2 cells | 200 |
| C1CCC(C(CC2CCCCN2)C2CCCCC2)CC1 (stereo not shown) [Perhexiline] | HepG2 cells | 10 |
| CC(C)C(=O)Nc1ccc([N+](=O)[O-])c(C(F)(F)F)c1 [Flutamide] | HepG2 cells | 500 |
| CC(=O)Nc1ccc(O)cc1 [Acetaminophen] | HepG2 cells | 4 |
| O=C(O)COc1ccc(C(=O)c2cccs2)c(Cl)c1Cl [Tienilic acid] | HepG2 cells | 800 |

###

System: HepG2 cells transduced with AdCYP1A2
assayText: HCS hepatotoxicity assay (MEC, TR), AdCYP1A2-HepG2
Type: cell-based, human
appliedConditions: AdCYP 1A2 1x; 24 h; unit inferred, tested range in µM
Description: For subculturing purposes, cells were detached by treatment with 0.25% trypsin/0.02% EDTA at 37 °C. For the adenovirus infection studies, cells were seeded in 96-well plates (5000 cells/well) and adenovirus-containing medium was added 48 h later. […] The drugs included in the study were chosen based on previous information about their hepatotoxicity. […] Each experimental condition was repeated independently three times (with three wells measured each time). […]
valueType: MEC Calcium (µM)

| compound | unitOfMeasurement | value |
| --- | --- | --- |
| CC(C)C(=O)Nc1ccc([N+](=O)[O-])c(C(F)(F)F)c1 [Flutamide] | µM | 500 |
